- subject.of.test: ERK2 (Homo sapiens)
- Sequence (P28482 whole entry): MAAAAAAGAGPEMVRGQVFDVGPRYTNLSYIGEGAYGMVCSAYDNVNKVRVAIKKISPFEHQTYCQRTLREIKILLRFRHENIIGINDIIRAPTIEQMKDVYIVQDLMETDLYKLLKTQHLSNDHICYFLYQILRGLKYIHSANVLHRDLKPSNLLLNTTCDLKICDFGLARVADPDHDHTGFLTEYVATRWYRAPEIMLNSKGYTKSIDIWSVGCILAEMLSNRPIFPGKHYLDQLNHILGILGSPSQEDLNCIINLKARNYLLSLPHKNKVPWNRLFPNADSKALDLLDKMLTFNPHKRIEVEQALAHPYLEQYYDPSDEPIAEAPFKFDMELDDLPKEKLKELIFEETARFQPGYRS
- protocol.details: ERK2 inhibition assay (spectrophotometric coupled-enzyme assay)
- Type: biochemical
- stated.conditions: read-out: ERK2 Inhibitory Activity (Ki class D-F)
- Description: The IC50 was evaluated from the rate data as a function of inhibitor concentration. […] The compound numbers correspond to the compound numbers in Table 1.
pKi: −log10 of the molar value.
Recorded pKi for the following molecules
assay.metric: pKi

O=C(NC(CO)c1ccccc1)c1cc(-c2nc(Nc3ccccc3)ncc2C2CC2)c[nH]1 (centres unmarked) :: 6.00 to 7.00
Cc1cnc(Nc2ccccc2)nc1-c1c[nH]c(C(=O)NCCN)c1 :: 6.00 to 7.00
CCC(CO)Nc1ncc(C)c(-c2c[nH]c(C(=O)NC(CO)c3cccc(C)c3)c2)n1 (centres unmarked) :: > 7.00
Cc1cnc(Nc2cccnc2)nc1-c1c[nH]c(C(=O)NC(CO)c2ccccc2)c1 (centres unmarked) :: > 7.00
Cc1cnc(Nc2cccc(C)c2C)nc1-c1c[nH]c(C(=O)NC(CO)c2ccccc2)c1 (centres unmarked) :: > 7.00
Cc1cnc(NCc2ccccc2)nc1-c1c[nH]c(C(=O)NC(CO)c2ccccc2)c1 (centres unmarked) :: > 7.00
COc1ccccc1C(CO)NC(=O)c1cc(-c2nc(NC3CC3)ncc2C)c[nH]1 (centres unmarked) :: > 7.00
Cc1cccc(C(CO)NC(=O)c2cc(-c3nc(Nc4cccc(C)c4C)ncc3C)c[nH]2)c1 (centres unmarked) :: > 7.00

Source of measurements: patent US7253187B2
